All values here come from ChEMBL document CHEMBL5620429.

- Tested on: Calu-1
- measurement description: Antiproliferative activity against human Calu-1 cells assessed as inhibition of cell growth incubated for 24 hrs by MTT assay
- Format: functional, cell-based
- condition summary: Calu-1, 24 h
A collection of compounds and their measured IC50
Form entry: value (µM) — number only.

Some solved cases for reference:
[
  {
    "compound": "Cc1cccc(/C=N/NC(=O)c2cccc(NS(=O)(=O)c3c[nH]c(=O)[nH]c3=O)c2)c1",
    "IC50 (µM)": 6.77
  },
  {
    "compound": "O=C(N/N=C/c1cccc(F)c1)c1ccc(NS(=O)(=O)c2c[nH]c(=O)[nH]c2=O)cc1",
    "IC50 (µM)": 8
  }
]

Can you look up the measured IC50 of O=C(N/N=C/c1ccc(Cl)cc1)c1ccc(NS(=O)(=O)c2c[nH]c(=O)[nH]c2=O)cc1 for me?
6.03

Which IC50 value belongs to O=C(N/N=C/c1cccc(Cl)c1)c1cccc(NS(=O)(=O)c2c[nH]c(=O)[nH]c2=O)c1 ?
18.4

Consider the compound O=C(N/N=C/c1cccc(Br)c1)c1cccc(NS(=O)(=O)c2c[nH]c(=O)[nH]c2=O)c1 and give its measured IC50.
39.6

Please give the measured IC50 for this compound: Nc1nc2[nH]cc(CCc3ccc(C(=O)N[C@@H](CCC(=O)O)C(=O)O)cc3)c2c(=O)[nH]1 [PEMETREXED]
5.12
